- method summary: log P by HPLC on reversed phase columns (Method L0; [a] acidic, [b] neutral range)
- experimental setup: HPLC on reversed phase columns (Method L0)
quantity measured: log P
Number only, no unit.

The molecule Cc1nn2c(C(F)(F)F)c(C(=O)N[C@H]3CCc4ccccc43)cnc2c1-c1cccc(OC(F)(F)F)c1 showed log P equal to 5.21

The molecule Cc1nc2c(-c3cc(Cl)cc(Cl)c3)c(C)nn2c(C)c1C(=O)N[C@H]1CCOc2ccccc21 showed log P equal to 4.76

The molecule CC(=O)Nc1ccc(-c2c(C)nn3c(C(C)C)c(C(=O)N[C@H]4CCc5ccccc54)cnc23)cc1 showed log P equal to 3.24

The molecule COc1c(Cl)ccc(-c2c(C)nn3c(C(C)C)c(C(=O)N[C@H]4CCOc5ccccc54)cnc23)c1F showed log P equal to 4.74

The molecule CCSc1nn2c(C(C)C)c(C(=O)N[C@H]3CCOc4ccccc43)cnc2c1-c1cc(Cl)cc(Cl)c1 showed log P equal to 6.71

The molecule Cc1nn2c(C(F)(F)F)c(C(=O)N[C@H]3CCc4ccccc43)cnc2c1-c1cccc(Cl)c1 showed log P equal to 4.97

The molecule COCc1cccc(-c2c(C)nn3c(C(F)(F)F)c(C(=O)N[C@H]4CCc5ccccc54)cnc23)c1 showed log P equal to 4.32

The molecule Cc1nn2c(C(F)(F)F)c(C(=O)N[C@H]3CCc4ccccc43)cnc2c1-c1cccc(F)c1 showed log P equal to 4.53

The molecule Cc1nn2c(C(C)C)c(C(=O)N[C@H]3CCc4ccccc43)cnc2c1-c1cn[nH]c1 showed log P equal to 2.75

The molecule CC(C)Sc1nn2c(C(C)C)c(C(=O)N[C@H]3CCc4ccccc43)cnc2c1-c1cc(Cl)cc(Cl)c1 showed log P equal to 7.34

The molecule Cc1ccc2c(c1)C(NC(=O)c1cnc3c(-c4c(F)cccc4Cl)c(C)nn3c1C(C)C)CCO2 (racemic) showed log P equal to 4.67

The molecule Cc1nn2c(C(F)(F)F)c(C(=O)N[C@H]3CCc4ccccc43)cnc2c1-c1cccc(N(C)C)c1 showed log P equal to 4.1

The molecule Cc1nn2c(C(C)C)c(C(=O)NC3CCOc4ccc(F)cc43)cnc2c1-c1c(F)cccc1Cl (racemic) showed log P equal to 4.45

The molecule COc1ccc(F)c(-c2c(C)nn3c(C(C)C)c(C(=O)N[C@H]4CCOc5ccccc54)cnc23)c1Cl showed log P equal to 4.23

The molecule Cc1nn2c(C(C)C)c(C(=O)N[C@H]3CCOc4ccccc43)cnc2c1-c1ccc2c(c1)CCC2=O showed log P equal to 3.75

----------
Consider the following molecules; for each one, report its EC50.
- assay system: C. elegans Slo-1a (Caenorhabditis elegans, UniProt Q95V25)
- Sequence (Q95V25 whole entry): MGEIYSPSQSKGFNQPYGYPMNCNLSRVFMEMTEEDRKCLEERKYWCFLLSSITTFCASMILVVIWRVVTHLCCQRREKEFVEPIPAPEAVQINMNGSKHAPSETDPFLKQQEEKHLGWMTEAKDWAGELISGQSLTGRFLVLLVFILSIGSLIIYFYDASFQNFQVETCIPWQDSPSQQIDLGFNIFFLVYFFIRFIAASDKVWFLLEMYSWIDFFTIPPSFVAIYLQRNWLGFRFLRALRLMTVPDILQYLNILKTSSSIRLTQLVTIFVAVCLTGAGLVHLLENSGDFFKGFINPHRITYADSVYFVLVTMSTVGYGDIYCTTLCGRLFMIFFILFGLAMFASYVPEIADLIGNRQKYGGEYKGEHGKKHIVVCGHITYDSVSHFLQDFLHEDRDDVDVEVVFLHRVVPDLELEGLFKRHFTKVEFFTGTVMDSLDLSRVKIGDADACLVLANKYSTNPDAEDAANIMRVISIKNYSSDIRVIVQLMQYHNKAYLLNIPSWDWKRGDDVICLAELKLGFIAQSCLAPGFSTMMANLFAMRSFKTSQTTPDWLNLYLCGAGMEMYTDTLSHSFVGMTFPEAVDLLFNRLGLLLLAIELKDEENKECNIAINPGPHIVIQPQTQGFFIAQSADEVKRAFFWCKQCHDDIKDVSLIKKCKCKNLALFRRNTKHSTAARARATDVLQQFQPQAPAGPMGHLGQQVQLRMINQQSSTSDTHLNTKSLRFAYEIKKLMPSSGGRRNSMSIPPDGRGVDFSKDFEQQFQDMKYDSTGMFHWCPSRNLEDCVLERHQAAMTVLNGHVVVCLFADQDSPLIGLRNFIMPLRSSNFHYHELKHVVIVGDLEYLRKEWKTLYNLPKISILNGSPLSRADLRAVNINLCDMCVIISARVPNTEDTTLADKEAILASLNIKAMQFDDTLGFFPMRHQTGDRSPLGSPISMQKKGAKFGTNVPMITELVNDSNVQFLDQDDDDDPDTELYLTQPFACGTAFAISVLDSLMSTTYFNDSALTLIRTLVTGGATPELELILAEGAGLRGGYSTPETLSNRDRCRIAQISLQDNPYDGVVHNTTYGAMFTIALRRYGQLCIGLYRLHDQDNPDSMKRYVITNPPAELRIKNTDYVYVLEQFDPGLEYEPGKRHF
- method summary: In vitro assay 1: C. elegans Slo-1a, action at a recombinant C. elegans CHO cell line (membrane potential measurement)
Answer with the figure and its unit, nothing else.

The molecule COc1cccc(-c2c(C)nn3c(C4CC4)c(C(=O)N[C@H]4CCCc5ccccc54)cnc23)c1 showed EC50 equal to 6.31 nM

The molecule Cc1nn2c(C(C)C)c(C(=O)N[C@H]3CCOc4ccccc43)cnc2c1-c1cc(O)c(F)c(F)c1 showed EC50 equal to 15.8 nM

The molecule CC(C)c1c(C(=O)N[C@H]2CCOc3ccccc32)cnc2c(-c3cc(Cl)cc(Cl)c3)c(S(C)(=O)=O)nn12 showed EC50 equal to 20 nM

The molecule Cc1nn2c(C(C)C)c(C(=O)N[C@H]3CCCc4ccccc43)cnc2c1-c1cccc(F)c1F showed EC50 equal to 12.6 nM

The molecule CC(C)c1c(C(=O)N[C@H]2CCOc3ccccc32)cnc2c(-c3cc(Cl)cc(Cl)c3)c(C(F)(F)F)nn12 showed EC50 equal to 50.1 nM

The molecule CCS(=O)(=O)c1nn2c(C(C)C)c(C(=O)N[C@H]3CCc4ccccc43)cnc2c1-c1cc(Cl)cc(Cl)c1 showed EC50 equal to 1260 nM

The molecule COc1cc(-c2c(C)nn3c(C(C)C)c(C(=O)N[C@H]4CCCc5ccccc54)cnc23)cc(C(F)(F)F)c1 showed EC50 equal to 63.1 nM

The molecule Cc1nn2c(C(C)C)c(C(=O)N[C@H]3CCCc4ccccc43)cnc2c1-c1cc(Cl)cc(C(F)(F)F)c1 showed EC50 equal to 7.94 nM

The molecule Cc1nn2c(C(C)C)c(C(=O)N[C@H]3CCOc4ccccc43)cnc2c1-c1cccc2c1CCN2C showed EC50 equal to 2 nM

The molecule CCC(C)c1c(C(=O)N[C@H]2CCc3ccccc32)cnc2c(-c3c(F)cccc3Cl)c(C)nn12 (stereo partly drawn) showed EC50 equal to 39.8 nM

The molecule Cc1nn2c(C(C)C)c(C(=O)N[C@H]3CCCc4ccccc43)cnc2c1-c1c(F)cccc1Cl showed EC50 equal to 7.94 nM

The molecule Cc1nn2c(C3CC3)c(C(=O)N[C@H]3CCc4ccccc43)cnc2c1-c1cccc(C(F)(F)F)c1 showed EC50 equal to 20 nM

The molecule COc1cccc(-c2c(C)nn3c(C(C)C)c(C(=O)N[C@H]4CCc5ccccc54)cnc23)c1 showed EC50 equal to 15.8 nM

The molecule Cc1nn2c(C3CC3)c(C(=O)N[C@H]3CCOc4ccccc43)cnc2c1-c1cc(Cl)c(F)c(Cl)c1 showed EC50 equal to 6.31 nM

The molecule Cc1nn2c(C(C)C)c(C(=O)N[C@H]3CCOc4ccccc43)cnc2c1-c1ccccc1F showed EC50 equal to 6.31 nM
